# Potency listing for each entry below
- tested.system: Glucocorticoid receptor (Homo sapiens)
- procedure.details: GR-GFP Redistribution (AID 450); also: potency is read from the fitted curve at half-maximal effect
- cond: U2OS GR-GFP nuclear translocation, laser cytometry, 2 h
Calls of active or inactive are those of the source.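 The calls were made as follows: active = compounds whose dose series gives a full or clear partial fitted curve of increased nuclear translocation; inconclusive = weak partial curve or effect only at the top dose; inactive = no dose-dependent translocation response.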

Below: 5 compounds and their reported Potency.
COc1ccc(Oc2ncc3nc(-c4ccc(F)cc4)c(=O)n(CCC#N)c3n2)cc1 > 9.22 µM (inactive)
COc1ccccc1-c1ccc2ncnc(N3CCOCC3)c2c1 > 46 µM (inactive)
CN(C)c1ccc(-c2cncnc2NCCN2CCOCC2)cc1 > 46 µM (inactive)
CNc1ncncc1-c1ccccc1CN(C)C > 46 µM (inactive)
Cc1cccc(CNc2ncncc2-c2ccccc2CN(C)C)c1 > 46 µM (inactive)

Entry "COc1ccc(CNc2nc(-c3cccnc3)nc3ccccc23)c(OC)c1" , tested on Glucocorticoid receptor (Homo sapiens), has a reported Potency of > 46 µM (inactive)

Entry "COc1cccc(Nc2ncc3nc(-c4ccc(F)cc4)c(=O)n(CCC#N)c3n2)c1" , tested on Glucocorticoid receptor (Homo sapiens), has a reported Potency of > 9.22 µM (inactive)

Entry "COc1ccc2[nH]cc(CCNc3ncnc4ccc(-c5ccccc5OC)cc34)c2c1" , tested on Glucocorticoid receptor (Homo sapiens), has a reported Potency of > 46 µM (inactive)

Entry "COc1ccc(Oc2ncc3nc(-c4cc(F)cc(F)c4)c(=O)n(C4CC4)c3n2)cc1" , tested on Glucocorticoid receptor (Homo sapiens), has a reported Potency of > 9.22 µM (inactive)
